# Test system: Escherichia coli D21f2tolC
# Experiment summary: microbe, parasite or virus in culture
# Experimental conditions: 16 h, read-out: MIC E. coli D21f2tolC, Mueller-Hinton II agar, 16 h at 37° C.
Property name: log10 MIC (log10 of the value in µg/mL)

compound="CC1=C(O)C(C)(C)C(=O)C(C(=O)C2CC2c2ccc(Oc3ccc(F)cc3)cc2C(F)(F)F)=C1O (centres unmarked)" property_name="log10 MIC" measured=0.60
compound="CC1=C(O)C(C)(C)C(=O)C(C(=O)C2CC2c2ccc(Cl)cc2C(F)(F)F)=C1O (centres unmarked)" property_name="log10 MIC" measured=0.49
compound=CC1=C(O)C(C)(C)C(=O)C(C(=O)CCc2ccc(Oc3ccc(F)cc3)cc2)=C1O property_name="log10 MIC" measured=0.81
compound="CCC1=C(O)C(CC)(CC)C(=O)C(C(=O)C2CC2c2ccc(C(F)(F)F)cc2)=C1O (centres unmarked)" property_name="log10 MIC" measured=0.04
compound="Cc1cc(Oc2ccccc2)ccc1C1CC1C(=O)c1c(O)cc(O)c(Cl)c1O (centres unmarked)" property_name="log10 MIC" measured=1.00
compound="O=C(c1c(O)cc(O)cc1O)C1CC1c1ccc(Oc2ccc(F)cc2)cc1C(F)(F)F (centres unmarked)" property_name="log10 MIC" measured=0.18
compound="O=C(c1c(O)cc(O)c(Cl)c1O)C1CC1c1ccc(Cl)cc1C(F)(F)F (centres unmarked)" property_name="log10 MIC" measured=1.23

---

MIC: recorded values
# Tested on: Escherichia coli D21f2tolC
# Experiment summary: microbe, parasite or virus in culture
# Experimental conditions: 16 h, read-out: MIC E. coli D21f2tolC, Mueller-Hinton II agar, 16 h at 37° C.
Property name: MIC (µg/mL)

compound="CC(Cc1ccc(Cl)cc1)C(=O)c1c(O)cc(O)cc1O (racemic)" modifier== measured=6.5
compound=Cc1cc(Oc2ccc(Cl)cc2)ccc1/C=C/C(=O)c1c(O)cc(O)cc1O modifier== measured=1.1
compound=O=C(/C=C/c1ccc(Oc2ccccn2)cc1)c1c(O)cc(O)cc1O modifier=> measured=40
compound="CC1=C(O)C(C)(C)C(=O)C(C(=O)C2CC2c2ccc(C(F)(F)F)cc2C(F)(F)F)=C1O (stereo not shown)" modifier== measured=2.4

---

# System: Escherichia coli D21f2tolC
# Experiment summary: microbe, parasite or virus in culture
# Experimental conditions: 16 h, read-out: MIC E. coli D21f2tolC, Mueller-Hinton II agar, 16 h at 37° C.
Property name: MIC (µg/mL)

molecule="O=C(c1c(O)cc(O)cc1O)C1CC1c1ccc(C(F)(F)F)cc1 (stereo not shown) [Example 58]" modifier== measured=3.9
molecule="CCCC1=C(O)C(CCC)(CCC)C(=O)C(C(=O)CCc2ccc(Oc3ccc(F)cc3)cc2C)=C1O [Example 69]" modifier== measured=1.1
molecule="O=C(c1c(O)cc(O)cc1O)C1CC1c1ccc(Oc2ccc(F)cc2)cc1 (stereo not shown) [Example 12]" modifier== measured=1.5
molecule="CC1=C(O)C(C)(C)C(=O)C(C(=O)C2CC2c2ccc(Cl)cc2C)=C1O (stereo not shown) [Example 77]" modifier== measured=7.4
molecule="CCCC1=C(O)C(CCC)(CCC)C(=O)C(C(=O)C2CC2c2ccc(C(F)(F)F)cc2C(F)(F)F)=C1O (stereo not shown) [Example 86]" modifier== measured=2.2
molecule="COc1ccc(C2CC2C(=O)c2c(O)cc(O)cc2O)cc1 (stereo not shown) [Example 38]" modifier=> measured=40
molecule="O=C(CCc1ccc(Oc2ccc(F)cc2)cc1C(F)(F)F)c1c(O)cc(O)c(Cl)c1O [Example 49]" modifier== measured=12
molecule="O=C(/C=C/c1ccc(Oc2ccc(C(F)(F)F)cc2)cc1)c1c(O)cc(O)cc1O [Example 28]" modifier== measured=2.4
molecule="CCCC1=C(O)C(CCC)(CCC)C(=O)C(C(=O)C2CC2c2ccc(Cl)cc2C(F)(F)F)=C1O (stereo not shown) [Example 80]" modifier== measured=0.33
molecule="CC1=C(O)C(C)(C)C(=O)C(C(=O)C2CC2c2ccc(Oc3ccc(F)cc3)cc2)=C1O (stereo not shown) [Example 92]" modifier== measured=5.5
molecule="Cc1ccc(C2CC2C(=O)c2c(O)cc(O)cc2O)cc1 (stereo not shown) [Example 19]" modifier== measured=13
molecule="Cc1cc(Cl)ccc1C1CC1C(=O)c1c(O)cc(O)cc1O (stereo not shown) [Example 53]" modifier== measured=4.7
molecule="O=C(CCc1ccc(Oc2cccc(Cl)c2)cc1)c1c(O)cc(O)cc1O [Example 3]" modifier== measured=1.9
molecule="Cc1cc(Oc2ccccc2)ccc1/C=C/C(=O)c1c(O)cc(O)c(Cl)c1O [Example 40]" modifier== measured=9.4
molecule="O=C(c1c(O)cc(O)cc1O)C1CC1c1ccc(Oc2ccccc2)cc1 (stereo not shown) [Example 22]" modifier== measured=0.49
molecule="Cc1cc(Oc2ccc(Cl)cc2)ccc1C1CC1C(=O)c1c(O)cc(O)cc1O (stereo not shown) [Example 26]" modifier== measured=1.4
